Collected Phage binding ELISA signal, Anti-PSMA Fab values appear next to each entry.
Target: T1, PSMA Fab (biotinylated (site not stated))
T1 construct: also called Anti-PSMA Fab; 006 PSMA Fab
Experiment: clonal phage ELISA; biotinylated PSMA Fab on neutravidin plate; bound phage detected with anti-M13-HRP
Reply with just the number.

1. VVPRCTPPWMCLVS [Phage-2629] : 0.976
2. VPKWCTPDWMCYGM [Phage-2621] : 0.996

As a next step, examine the binder that follows.
Task item: Need Phage binding ELISA signal, Anti-PSMA Fab of TPKWCTPPWMCQHG [Phage-2623] , thanks.
Reply: 0.994
